Test system: OVCAR-5 complex spheroid (HUVEC/MSC), viability % T/C
assayOverview: Anticancer human tumor OVCAR-5 cell line growth inhibition [Asc];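 further: spheroids exposed to agents for 7 days before readout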
conditionContext: curve of first compound; second compound 0.1 µM
recordedMetric: IC50 (µM)
Answer with a number only, understood to be in µM.

GET /value?item= C#Cc1c(F)ccc2cc(O)cc(-c3ncc4c(N5CC6CCC(C5)N6)nc(OCC56CCCN5CC(F)C6)nc4c3F)c12 (configuration not stated) + Cc1c(S(C)(=O)=O)c(-c2cc(F)cc(N3CCN(c4ccc(NS(=O)(=O)c5ccc(NC(CCN6CCC(C(=O)OCCCP(=O)(O)O)CC6)CSc6ccccc6)c(S(=O)(=O)C(F)(F)F)c5)cc4)CC3)c2)c(-c2ccc(Cl)cc2)n1C(C)C &field=IC50 returns 5.34

###

Tested on: OVCAR-5 complex spheroid (HUVEC/MSC), viability % T/C
assayOverview: Anticancer human tumor OVCAR-5 cell line growth inhibition [Asc];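 further: spheroids exposed to agents for 7 days before readout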;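 on viability, T/C: 100% = DMSO vehicle-treated wells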
conditionContext: second compound 0.0316 µM; first compound 0.0316 µM; stronger effect = lower value
recordedMetric: viability, T/C (%)
Numbers only here, please. The scale is %.

Use the examples below as a reference point.
>  <compound>
COc1c(OCCCN2CCOCC2)ccc2c3n(c(=NC(=O)c4cnc(N)nc4)nc12)CCN3 + CNC(C)C(=O)NC1CN(S(=O)(=O)c2cccc(S(=O)(=O)N3CCC4CCC(C(=O)NC(c5ccccc5)c5ccccc5)N4C(=O)C(NC(=O)C(C)NC)C3)c2)CCC2CCC(C(=O)NC(c3ccccc3)c3ccccc3)N2C1=O

>  <recordedMetric>
viability, T/C

>  <resultUnits>
%

>  <valueReported>
42.5

$$$$
>  <compound>
O=C(c1ccc(F)c(F)c1Nc1ccc(I)cc1F)N1CC(O)([C@@H]2CCCCN2)C1 + CNC(C)C(=O)NC1CN(S(=O)(=O)c2cccc(S(=O)(=O)N3CCC4CCC(C(=O)NC(c5ccccc5)c5ccccc5)N4C(=O)C(NC(=O)C(C)NC)C3)c2)CCC2CCC(C(=O)NC(c3ccccc3)c3ccccc3)N2C1=O

>  <recordedMetric>
viability, T/C

>  <resultUnits>
%

>  <valueReported>
64.5

$$$$

Okay, now this compound:
viability, T/C for C=C(F)C(=O)N1CCN(c2nc(OCC3CCCN3C)nc3c2CCN(c2cccc4cccc(Cl)c24)C3)CC1CC#N (stereo not drawn) + CNC(C)C(=O)NC1CN(S(=O)(=O)c2cccc(S(=O)(=O)N3CCC4CCC(C(=O)NC(c5ccccc5)c5ccccc5)N4C(=O)C(NC(=O)C(C)NC)C3)c2)CCC2CCC(C(=O)NC(c3ccccc3)c3ccccc3)N2C1=O is 94.4

###

Tested on: OVCAR-5 complex spheroid (HUVEC/MSC), viability % T/C
assayOverview: Anticancer human tumor OVCAR-5 cell line growth inhibition [Asc];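 further: spheroids exposed to agents for 7 days before readout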;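 on viability, T/C: 100% = DMSO vehicle-treated wells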
conditionContext: second compound 0.0316 µM; first compound 0.1 µM; stronger effect = lower value
recordedMetric: viability, T/C (%)
Response body: numeric value in %, unit text excluded.

>  <compound>
C#Cc1c(F)ccc2cc(O)cc(-c3ncc4c(N5CC6CCC(C5)N6)nc(OCC56CCCN5CC(F)C6)nc4c3F)c12 (stereo not drawn) + CNC(C)C(=O)NC1CN(S(=O)(=O)c2cccc(S(=O)(=O)N3CCC4CCC(C(=O)NC(c5ccccc5)c5ccccc5)N4C(=O)C(NC(=O)C(C)NC)C3)c2)CCC2CCC(C(=O)NC(c3ccccc3)c3ccccc3)N2C1=O

>  <systemUnderTest>
OVCAR-5 complex spheroid (HUVEC/MSC), viability % T/C

>  <viability, T/C (%)>
88.1

$$$$
>  <compound>
COc1c(OCCCN2CCOCC2)ccc2c3n(c(=NC(=O)c4cnc(N)nc4)nc12)CCN3 + CNC(C)C(=O)NC1CN(S(=O)(=O)c2cccc(S(=O)(=O)N3CCC4CCC(C(=O)NC(c5ccccc5)c5ccccc5)N4C(=O)C(NC(=O)C(C)NC)C3)c2)CCC2CCC(C(=O)NC(c3ccccc3)c3ccccc3)N2C1=O

>  <systemUnderTest>
OVCAR-5 complex spheroid (HUVEC/MSC), viability % T/C

>  <viability, T/C (%)>
30.2

$$$$
>  <compound>
C=C(F)C(=O)N1CCN(c2nc(OCC3CCCN3C)nc3c2CCN(c2cccc4cccc(Cl)c24)C3)CC1CC#N (stereo not drawn) + CNC(C)C(=O)NC1CN(S(=O)(=O)c2cccc(S(=O)(=O)N3CCC4CCC(C(=O)NC(c5ccccc5)c5ccccc5)N4C(=O)C(NC(=O)C(C)NC)C3)c2)CCC2CCC(C(=O)NC(c3ccccc3)c3ccccc3)N2C1=O

>  <systemUnderTest>
OVCAR-5 complex spheroid (HUVEC/MSC), viability % T/C

>  <viability, T/C (%)>
78.9

$$$$
>  <compound>
O=C(c1ccc(F)c(F)c1Nc1ccc(I)cc1F)N1CC(O)([C@@H]2CCCCN2)C1 + CNC(C)C(=O)NC1CN(S(=O)(=O)c2cccc(S(=O)(=O)N3CCC4CCC(C(=O)NC(c5ccccc5)c5ccccc5)N4C(=O)C(NC(=O)C(C)NC)C3)c2)CCC2CCC(C(=O)NC(c3ccccc3)c3ccccc3)N2C1=O

>  <systemUnderTest>
OVCAR-5 complex spheroid (HUVEC/MSC), viability % T/C

>  <viability, T/C (%)>
51.4

$$$$
>  <compound>
O=C(c1cc(Cc2n[nH]c(=O)c3ccccc23)ccc1F)N1CCN(C(=O)C2CC2)CC1 + CNC(C)C(=O)NC1CN(S(=O)(=O)c2cccc(S(=O)(=O)N3CCC4CCC(C(=O)NC(c5ccccc5)c5ccccc5)N4C(=O)C(NC(=O)C(C)NC)C3)c2)CCC2CCC(C(=O)NC(c3ccccc3)c3ccccc3)N2C1=O

>  <systemUnderTest>
OVCAR-5 complex spheroid (HUVEC/MSC), viability % T/C

>  <viability, T/C (%)>
88.3

$$$$

The observed viability, T/C for Cn1ncnc1[C@H]1c2n[nH]c(=O)c3cc(F)cc(c23)N[C@@H]1c1ccc(F)cc1 + CNC(C)C(=O)NC1CN(S(=O)(=O)c2cccc(S(=O)(=O)N3CCC4CCC(C(=O)NC(c5ccccc5)c5ccccc5)N4C(=O)C(NC(=O)C(C)NC)C3)c2)CCC2CCC(C(=O)NC(c3ccccc3)c3ccccc3)N2C1=O when tested with OVCAR-5 complex spheroid (HUVEC/MSC), viability % T/C stands at 74.6

Field viability, T/C (OVCAR-5 complex spheroid (HUVEC/MSC), viability % T/C), entry C=CC(=O)N1CCN(c2nc(=O)n(-c3c(C)ccnc3C(C)C)c3nc(-c4c(O)cccc4F)c(F)cc23)C(C)C1 (stereo not drawn) + CNC(C)C(=O)NC1CN(S(=O)(=O)c2cccc(S(=O)(=O)N3CCC4CCC(C(=O)NC(c5ccccc5)c5ccccc5)N4C(=O)C(NC(=O)C(C)NC)C3)c2)CCC2CCC(C(=O)NC(c3ccccc3)c3ccccc3)N2C1=O : 84.4

Log: OVCAR-5 complex spheroid (HUVEC/MSC), viability % T/C, compound CCN1CCN(Cc2ccc(Nc3ncc(F)c(-c4cc(F)c5nc(C)n(C(C)C)c5c4)n3)nc2)CC1 + CNC(C)C(=O)NC1CN(S(=O)(=O)c2cccc(S(=O)(=O)N3CCC4CCC(C(=O)NC(c5ccccc5)c5ccccc5)N4C(=O)C(NC(=O)C(C)NC)C3)c2)CCC2CCC(C(=O)NC(c3ccccc3)c3ccccc3)N2C1=O , viability, T/C = 55.2
